# pKi annotations
Target: dSERT (Drosophila melanogaster)
Sequence (P51905 whole entry): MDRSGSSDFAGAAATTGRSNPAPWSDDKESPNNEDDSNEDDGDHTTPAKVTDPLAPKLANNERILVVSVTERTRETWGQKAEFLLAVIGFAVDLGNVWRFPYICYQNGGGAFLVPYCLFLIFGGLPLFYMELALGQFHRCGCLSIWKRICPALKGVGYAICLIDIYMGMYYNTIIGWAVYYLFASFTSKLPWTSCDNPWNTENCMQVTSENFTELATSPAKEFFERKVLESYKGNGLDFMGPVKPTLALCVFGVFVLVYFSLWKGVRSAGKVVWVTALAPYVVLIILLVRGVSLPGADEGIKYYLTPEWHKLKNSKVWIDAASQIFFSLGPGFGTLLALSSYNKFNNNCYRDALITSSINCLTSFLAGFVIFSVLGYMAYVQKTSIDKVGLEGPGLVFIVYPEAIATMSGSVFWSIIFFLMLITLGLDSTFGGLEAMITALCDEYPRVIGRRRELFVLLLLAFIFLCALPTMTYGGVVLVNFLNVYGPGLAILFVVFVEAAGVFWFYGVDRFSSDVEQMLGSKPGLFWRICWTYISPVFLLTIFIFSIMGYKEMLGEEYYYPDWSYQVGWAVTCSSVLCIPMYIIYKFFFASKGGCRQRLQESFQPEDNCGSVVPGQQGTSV
Assay: inhibition of [3H]5-HT uptake in Xenopus oocytes
Type: cell-based
pKi is a log-scale quantity: -log10 of the concentration expressed in molar.

| Compound | Result Value |
| --- | --- |
| C=C[C@H]1C[N@@]2CC[C@H]1C[C@H]2[C@H](O)c1ccnc2ccc(OC)cc12 | 3.99 |

Please examine the following record next.
pKi for C=C[C@H]1C[N@@]2CC[C@H]1C[C@@H]2[C@@H](O)c1ccnc2ccc(OC)cc12 ? 5.74
